Each entry below carries its recorded IC50.
MEASUREMENT_NOTES: Cytotoxicity against human KBVIN cells by SRB assay
Type: functional, cell-based
PARTICULARS: kbvin
REPORTED_PROPERTY: IC50 (µg/mL)

INSERT INTO results (compound, result_unit, numeric_result) VALUES
  ('C=C(C)[C@H]1Cc2c(ccc3c2O[C@@H]2COc4cc(OC)c(OC)cc4[C@@H]2[C@@H]3OC(=O)C2=CC(C)(C)N([O])C2(C)C)O1', 'µg/mL', 0.075),
  ('C=C(C)[C@H]1Cc2c(ccc3c2O[C@@H]2COc4cc(OC)c(OC)cc4[C@@H]2/C3=N\OC(=O)C2CC(C)(C)N([O])C(C)(C)C2)O1', 'µg/mL', 0.358),
  ('C=C(C)[C@H]1Cc2c(ccc3c2O[C@@H]2COc4cc(OC)c(OC)cc4[C@@H]2[C@@H]3OC(=O)[C@@H](NC(=O)OC2CC(C)(C)N([O])C(C)(C)C2)C(C)CC)O1 (stereo partly specified)', 'µg/mL', 0.399),
  ('C=C(C)[C@H]1Cc2c(ccc3c2O[C@@H]2COc4cc(OC)c(OC)cc4[C@@H]2[C@@H]3OC(=O)C2=CC(C)(C)N([O])C(C)(C)C2)O1', 'µg/mL', 0.299),
  ('C=C(C)[C@H]1Cc2c(ccc3c2O[C@@H]2COc4cc(OC)c(OC)cc4[C@@H]2[C@@H]3OC(=O)[C@H](C)NC(=O)OC2CC(C)(C)N([O])C(C)(C)C2)O1', 'µg/mL', 0.357),
  ('C=C(C)[C@H]1Cc2c(ccc3c2O[C@@H]2COc4cc(OC)c(OC)cc4[C@@H]2[C@@H]3OC(=O)[C@@H](NC(=O)OC2CC(C)(C)N([O])C(C)(C)C2)C(C)C)O1', 'µg/mL', 0.381),
  ('C=C(C)[C@H]1Cc2c(ccc3c2O[C@@H]2COc4cc(OC)c(OC)cc4[C@@H]2/C3=N\OC(=O)C2=CC(C)(C)N([O])C2(C)C)O1', 'µg/mL', 0.62),
  ('C=C(C)[C@H]1Cc2c(ccc3c2O[C@@H]2COc4cc(OC)c(OC)cc4[C@@H]2[C@@H]3OC(=O)[C@H](Cc2ccccc2)NC(=O)OC2CC(C)(C)N([O])C(C)(C)C2)O1', 'µg/mL', 0.383),
  ('C=C(C)[C@H]1Cc2c(ccc3c2O[C@@H]2COc4cc(OC)c(OC)cc4[C@@H]2[C@@H]3OC(=O)[C@H](CC(C)C)NC(=O)OC2CC(C)(C)N([O])C(C)(C)C2)O1', 'µg/mL', 0.355),
  ('C=C(C)[C@H]1Cc2c(ccc3c2O[C@@H]2COc4cc(OC)c(OC)cc4[C@@H]2/C3=N\OC(=O)C2=CC(C)(C)N([O])C(C)(C)C2)O1', 'µg/mL', 0.162),
  ('C=C(C)[C@H]1Cc2c(ccc3c2O[C@@H]2COc4cc(OC)c(OC)cc4[C@@H]2[C@@H]3OC(=O)CNC(=O)OC2CC(C)(C)N([O])C(C)(C)C2)O1', 'µg/mL', 0.41);

====

MEASUREMENT_NOTES: Cytotoxicity against human KBVIN cells by SRB assay
Assay type: functional, cell-based
PARTICULARS: kbvin
This section presents molecules with their documented IC50 values.
REPORTED_PROPERTY: IC50 (µg/mL)

INSERT INTO measurements (molecule, reported_property, numeric_result) VALUES
  ('C=C(C)[C@H]1Cc2c(ccc3c2O[C@@H]2COc4cc(OC)c(OC)cc4[C@@H]2[C@@H]3OC(=O)C2CC(C)(C)N([O])C(C)(C)C2)O1', 'IC50', 0.092),
  ('C=C(C)[C@H]1Cc2c(ccc3c2O[C@@H]2COc4cc(OC)c(OC)cc4[C@@H]2/C3=N\OC(=O)C2CC(C)(C)N([O])C2(C)C)O1 (some centres undefined)', 'IC50', 0.298),
  ('C=C(C)[C@H]1Cc2c(ccc3c2O[C@@H]2COc4cc(OC)c(OC)cc4[C@@H]2[C@@H]3OC(=O)[C@H](Cc2c[nH]c3ccccc23)NC(=O)OC2CC(C)(C)N([O])C(C)(C)C2)O1', 'IC50', 0.414),
  ('C=C(C)[C@H]1Cc2c(ccc3c2O[C@@H]2COc4cc(OC)c(OC)cc4[C@@H]2[C@@H]3OC(=O)C2CC(C)(C)N([O])C2(C)C)O1 (some centres undefined)', 'IC50', 0.241);
